src = patent US20110178396A1

Test system: B16F0 melanoma tumour
protocol.text: Biodistribution in B16 melanoma bearing mice
Type: in vivo, C57BL/6J mice
reported.conditions: B16 melanoma bearing mice, 3 h
measurement.type: uptake GIT (% ID/g)

[
  {
    "compound": "CCN(CC)CCNC(=O)c1ccc(F)nc1 [[^18F]MEL2]",
    "system": "B16F0 melanoma tumour",
    "units.text": "% ID/g",
    "uptake GIT": 0.541
  }
]

a: CCN(CC)CCNC(=O)c1ccnc(F)c1 [[^18F]MEL8]
b: CCN(CC)CCNC(=O)c1cccnc1F [[^18F]MEL6]
c: CCCCN(C)CCCCNC(=O)c1ccc(F)nc1 [[^18F]MEL4]
Q: Form: Sort by [uptake GIT] Order [ ascending ] Please respond by ranking the labels in the order requested.
Ans: a, c, b

###

System: B16F0 melanoma tumour
protocol.text: Biodistribution in B16 melanoma bearing mice
Assay type: in vivo, C57BL/6J mice
reported.conditions: B16 melanoma bearing mice, 1 h
measurement.type: uptake BLOOD (% ID/g)

[
  {
    "molecule": "CCN(CC)CCNC(=O)c1ccnc(F)c1 [[^18F]MEL8]",
    "uptake BLOOD (% ID/g)": 0.77
  }
]

P: CCN(CC)CCNC(=O)c1cccnc1F [[^18F]MEL6]
Q: CCCCN(C)CCCCNC(=O)c1ccc(F)nc1 [[^18F]MEL4]
R: CCN(CC)CCNC(=O)c1ccc(F)nc1 [[^18F]MEL2]
Q: Please list these molecules in decreasing order of uptake BLOOD. Please respond by ranking the labels in the order requested.
Ans: P, R, Q
(P: 0.9 % ID/g, R: 0.619 % ID/g, Q: 0.32 % ID/g)
